Tested on: baby hamster kidney cells (BHK21)
Assay: Cytotoxicity, alamarBlue, BHK-21 cells
Assay type: cell-based
Conditions: 2 h at 37 °C, 0.1–100 µM, alamarBlue fluorescence, non-linear fit, n ≥ 3
No end group written: not given here.
PROPERTY NAME: EC10 (effective cytotoxic concentration) (µM)
Reply numerically in µM, unit not repeated.

• FLSTIWNGIKSLF-NH2 [D2] = 13.95
• IFKAIWSGIKSLF-NH2 [Um5] = 0.36
• GFWGKLWEGVKNAIKKK-NH2 [D11] = 0.66
• GFWGKLLEGVKKAI-NH2 [D5] = 2.50
• FLSTIWNGIKGLL-NH2 [Uy192] = 1.92

Enquiry: Which measured EC10 (effective cytotoxic concentration) value corresponds to ILSAIWSGIKSLF-NH2 [UyCT3] ?
Return: 0.57

Enquiry: Next up: FPFLLSLIPSAISAIKRL-NH2 [Uy234]
Return: 0.23

Enquiry: Next up: GFWGKLWEGVKSAI-NH2 [Um3]
Return: 2.359

Enquiry: Next up: ISQSDAILSAIWSGIKSLF-NH2 [Um2]
Return: 0.58

* * *

We begin with a simple list: items and their reported HC50 (hemolytic concentration).
Test system: pig erythrocytes
Test: Hemolytic activity on pig erythrocytes
Format: cell-based
Conditions: 1 h at 37 °C, 6.25–100 µM, absorbance 570 nm, non-linear fit, n ≥ 3, n.c. (100) = not convergent at 100 µM
No end group written: not given here.
Reply numerically in µM, unit not repeated.

Enquiry: Which measured HC50 (hemolytic concentration) value corresponds to FPFLLSLIPSAISAIKRL-NH2 [Uy234] ?
Return: 104.50

Enquiry: Next up: GFWGKLLEGVKKAI-NH2 [D5]
Return: 1636

Enquiry: Next up: ILSAIWSGIKSLF-NH2 [UyCT3]
Return: 58.15

Enquiry: Next up: FLSTIWNGIKSLF-NH2 [D2]
Return: 24.48

Enquiry: Next up: IFKAIWSGIKSLF-NH2 [Um5]
Return: 59.25

Enquiry: Next up: FLSTIWNGIKGLL-NH2 [Uy192]
Return: 155.6

Enquiry: Next up: GFWGKLWEGVKNAI-NH2 [UyCT1]
Return: 142.5

* * *

Assay: Cytotoxicity, alamarBlue, BHK-21 cells
Type: cell-based, hamster
Conditions: hamster, 2 h at 37 °C, 0.1–100 µM, alamarBlue fluorescence, non-linear fit, concentration reducing viability by 50%, n ≥ 3, read-out: EC50 (effective cytotoxic concentration)
No end group written: not given here.
We begin with a simple list: items and their reported CC50 at 2 h.
Phrase the answer as number then unit, nothing more needed.

Take a look at these entries with their results.
- FPFLLSLIPSAISAIKRL-NH2 [Uy234]: 6.29 µM
- ILSAIWSGIKSLF-NH2 [UyCT3]: 15.4 µM
- GFWGKLWEGVKNAIKKK-NH2 [D11]: 17.8 µM

Enquiry: Which measured CC50 at 2 h value corresponds to GFWGKLWEGVKNAI-NH2 [UyCT1] ?
Return: 17.4 µM

Enquiry: Next up: FPFLKLSLKIPKSAIKSAIKRL-NH2 [D10]
Return: 141 µM

* * *

Test system: pig erythrocytes
Assay: Hemolytic activity on pig erythrocytes
Format: cell-based
Conditions: 100 µM peptide (highest tested), 1 h at 37 °C, 10% Triton X-100 = 100% hemolysis
No end group written: not given here.
PROPERTY NAME: percentage of hemolysis

Take a look at these entries with their results.
- GFWGKLWEGVKNAIKKK-NH2 [D11]: ~ 10%
- GFWGKLLEGVKKAI-NH2 [D5]: ~ 10%

Enquiry: Which measured percentage of hemolysis value corresponds to FPFLKLSLKIPKSAIKSAIKRL-NH2 [D10] ?
Return: ~ 10%
